Reference for the values: ChEMBL document CHEMBL1201862

- Tested on: HOP-92
- procedureText: NCI tumour cell line growth inhibition, 48 h
Activity calls are given as the source filed them. Cut-off read from the data, not from the text of the source: active = GI50 up to about 1.1 µM and inactive = higher. Non-standard residues stand in square brackets, D forms with d. Residues, ends and D or L forms follow the SMILES beside them. *: point of attachment. Cbz = O=C(OCc1ccccc1)*; Boc = CC(C)(C)OC(=O)*; Aib = CC(C)(N)C(=O)O; OBn = c1ccc(CO*)cc1; OtBu = CC(C)(C)O*; βAla = NCCC(=O)O
observedProperty: GI50

Value lookup for GI50; key = CN(C)C(c1ccccc1)C1COC2Cc3ccccc3C1O2 (configuration not stated)
58.1 µM (inactive)

Value lookup for GI50; key = N#Cc1sc2c(c1OC(=O)c1ccc(Cl)cc1)c(=O)n(-c1ccccc1)c(=S)n2-c1ccccc1
18.5 µM (inactive)

Value lookup for GI50; key = CC(C)(C)OC(=O)CC(NC(=O)OC(C)(C)C)C(=O)NC(CCCCNC(=O)OCc1ccccc1)C(=O)NC(C)(C)C(=O)NCCC(=O)OCc1ccccc1 (configuration not stated) (Boc-D(OtBu)K(Cbz)[Aib][βAla]-OBn; configuration not given here)
> 100 µM (inactive)

Value lookup for GI50; key = CC1=C(C)C2(C#N)C(=O)N3C(=NC(c4ccco4)NC3c3ccco3)C2(C#N)C(c2ccco2)N1 (configuration not stated)
> 100 µM (inactive)

Value lookup for GI50; key = COC(=O)Cc1c([C@H]2[C@H](CC(=O)OC)c3ccccc3N2C(=O)C(F)(F)F)[nH]c2ccccc12
32.3 µM (inactive)

Value lookup for GI50; key = CC[C@@]12C=CC(=S)N(CCSc3ccccc3)[C@@H]1c1c(n(S(=O)(=O)c3ccc(OC)cc3)c3ccccc13)CC2
> 100 µM (inactive)

Value lookup for GI50; key = Cc1ccc(-c2cc(-c3ccc(Cl)cc3)nc(/N=C3\C(=O)N(CN4CCOCC4)c4ccc(Cl)cc43)n2)cc1
17.9 µM (inactive)
